Tested target: human GLP-1R (Homo sapiens, UniProt P43220)
Construct: expressed in transfected cells; host or cells: PEAK RAPID-derived Gα15-trans48 LD stably expressing cells (PRG48), transiently transfected with Lipofectamine 2000
Sequence (P43220 24-463): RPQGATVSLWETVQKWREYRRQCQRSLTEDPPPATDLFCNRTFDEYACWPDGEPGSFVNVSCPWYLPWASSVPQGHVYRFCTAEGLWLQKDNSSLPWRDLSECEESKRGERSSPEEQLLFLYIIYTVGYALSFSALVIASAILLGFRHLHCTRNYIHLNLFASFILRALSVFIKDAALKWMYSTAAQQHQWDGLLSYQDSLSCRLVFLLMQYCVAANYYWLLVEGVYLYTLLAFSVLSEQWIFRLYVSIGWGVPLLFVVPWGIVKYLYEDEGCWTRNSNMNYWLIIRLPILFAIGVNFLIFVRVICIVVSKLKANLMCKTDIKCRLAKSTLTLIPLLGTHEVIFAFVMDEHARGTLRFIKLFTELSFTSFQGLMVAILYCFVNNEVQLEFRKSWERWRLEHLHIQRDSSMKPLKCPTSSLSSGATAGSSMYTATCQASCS
Method: GLP-1 receptor in vitro calcium assay (intracellular free calcium concentration change induced via GLP-1 receptor)
Assay type: cell-based
Assay context: intensity compared to BETP, activity of BETP as 1
Experimental readout: GLP-1 receptor action enhancing activity (vs BETP)

| Smiles data | Tested target | Test result |
| --- | --- | --- |
| COc1cc(NC(=O)N[C@H](Cc2ccccc2)C(=O)OC(C)(C)C)ccc1NS(=O)(=O)c1ccc(C)cc1 | human GLP-1R (Homo sapiens, UniProt P43220) | 20 |

I. CC(C)(C)SCCCCCNC(=O)[C@@H](CC1CCCCC1)NC(=O)Nc1ccc(NS(=O)(=O)c2ccc(C(C)(C)C)cc2)cc1
II. Cc1ccc(S(=O)(=O)Nc2ccc(NC(=O)N[C@H](CC(C)C)C(=O)NCCC3CCCCC3)cc2)cc1
III. Cc1ccc(S(=O)(=O)Nc2ccc(NC(=O)N[C@H](Cc3ccccc3)c3nc(C(C)(C)C)no3)cc2)cc1
Query :: Put these in order: smallest GLP-1 receptor action enhancing activity (vs BETP) first, largest last. To answer, write out the labels according to the requested order.
Result :: III, II, I
